# viability, T/C listing for each entry below
test system: 186277-243-T-J2-PDC complex spheroid growth, % test/control; assay: Anticancer human tumor 186277-243-T-J2-PDC patient-derived colon adenocarcinoma cell line growth inhibition [Asc]; conditions: second compound 0.316 µM; first compound 0.3 µM; hits give low values
Note: unit % is implicit; provide only the numeric part.

Take a look at these entries with their results.
{"columns": ["molecule", "viability, T/C [%]"],
 "data": [
  ["NC(=O)C(=Cn1cnc(-c2cc(C(F)(F)F)cc(C(F)(F)F)c2)n1)c1cncnc1 + CNC(C)C(=O)NC1CN(S(=O)(=O)c2cccc(S(=O)(=O)N3CCC4CCC(C(=O)NC(c5ccccc5)c5ccccc5)N4C(=O)C(NC(=O)C(C)NC)C3)c2)CCC2CCC(C(=O)NC(c3ccccc3)c3ccccc3)N2C1=O", 20.3],
  ["CCN1C(C(=O)NC23CCC(C(=O)O)(CC2)CC3)C(c2cccc(Cl)c2F)C2(C(=O)Nc3cc(Cl)ccc32)C12CCCCC2 (stereo unspecified) + Cc1c(S(C)(=O)=O)c(-c2cc(F)cc(N3CCN(c4ccc(NS(=O)(=O)c5ccc(NC(CCN6CCC(C(=O)OCCCP(=O)(O)O)CC6)CSc6ccccc6)c(S(=O)(=O)C(F)(F)F)c5)cc4)CC3)c2)c(-c2ccc(Cl)cc2)n1C(C)C", 59.3],
  ["Cc1nc(N2CCC3(CC2)COC(C)C3N)c(CO)nc1Sc1ccnc(N)c1Cl (stereo unspecified) + CNC(C)C(=O)NC1CN(S(=O)(=O)c2cccc(S(=O)(=O)N3CCC4CCC(C(=O)NC(c5ccccc5)c5ccccc5)N4C(=O)C(NC(=O)C(C)NC)C3)c2)CCC2CCC(C(=O)NC(c3ccccc3)c3ccccc3)N2C1=O", 103],
  ["Cc1nc(N2CCC3(CC2)COC(C)C3N)c(CO)nc1Sc1ccnc(N)c1Cl (stereo unspecified) + Cc1c(S(C)(=O)=O)c(-c2cc(F)cc(N3CCN(c4ccc(NS(=O)(=O)c5ccc(NC(CCN6CCC(C(=O)OCCCP(=O)(O)O)CC6)CSc6ccccc6)c(S(=O)(=O)C(F)(F)F)c5)cc4)CC3)c2)c(-c2ccc(Cl)cc2)n1C(C)C", 117],
  ["CCN1C(C(=O)NC23CCC(C(=O)O)(CC2)CC3)C(c2cccc(Cl)c2F)C2(C(=O)Nc3cc(Cl)ccc32)C12CCCCC2 (stereo unspecified) + CNC(C)C(=O)NC1CN(S(=O)(=O)c2cccc(S(=O)(=O)N3CCC4CCC(C(=O)NC(c5ccccc5)c5ccccc5)N4C(=O)C(NC(=O)C(C)NC)C3)c2)CCC2CCC(C(=O)NC(c3ccccc3)c3ccccc3)N2C1=O", 118]
]}

The record that follows has no viability, T/C shown yet.
Query: # get_value(readout= viability, T/C, system= 186277-243-T-J2-PDC complex spheroid growth, % test/control) for NC(=O)C(=Cn1cnc(-c2cc(C(F)(F)F)cc(C(F)(F)F)c2)n1)c1cncnc1 + Cc1c(S(C)(=O)=O)c(-c2cc(F)cc(N3CCN(c4ccc(NS(=O)(=O)c5ccc(NC(CCN6CCC(C(=O)OCCCP(=O)(O)O)CC6)CSc6ccccc6)c(S(=O)(=O)C(F)(F)F)c5)cc4)CC3)c2)c(-c2ccc(Cl)cc2)n1C(C)C
Reply: 4.07

###

tested on: 186277-243-T-J2-PDC complex spheroid growth, % test/control; experiment: Anticancer human tumor 186277-243-T-J2-PDC cell line growth inhibition [Asc]; conditions: second compound 10 µM; first compound 10 µM; hits give low values;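 also: spheroids exposed to agents for 7 days; 100% = DMSO vehicle control wells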
Quick reference for viability, T/C among some compounds
Response body: numeric value in %, unit text excluded.

// worked examples, viability, T/C included
{"columns": ["compound", "measured number"],
 "data": [
  ["C#Cc1c(F)ccc2cc(O)cc(-c3ncc4c(N5CC6CCC(C5)N6)nc(OCC56CCCN5CC(F)C6)nc4c3F)c12 (centres undefined) + Cc1c(S(C)(=O)=O)c(-c2cc(F)cc(N3CCN(c4ccc(NS(=O)(=O)c5ccc(NC(CCN6CCC(C(=O)OCCCP(=O)(O)O)CC6)CSc6ccccc6)c(S(=O)(=O)C(F)(F)F)c5)cc4)CC3)c2)c(-c2ccc(Cl)cc2)n1C(C)C", 0.74],
  ["O=C(c1cc(Cc2n[nH]c(=O)c3ccccc23)ccc1F)N1CCN(C(=O)C2CC2)CC1 + Cc1c(S(C)(=O)=O)c(-c2cc(F)cc(N3CCN(c4ccc(NS(=O)(=O)c5ccc(NC(CCN6CCC(C(=O)OCCCP(=O)(O)O)CC6)CSc6ccccc6)c(S(=O)(=O)C(F)(F)F)c5)cc4)CC3)c2)c(-c2ccc(Cl)cc2)n1C(C)C", 17.9],
  ["C=C(F)C(=O)N1CCN(c2nc(OCC3CCCN3C)nc3c2CCN(c2cccc4cccc(Cl)c24)C3)CC1CC#N (centres undefined) + Cc1c(S(C)(=O)=O)c(-c2cc(F)cc(N3CCN(c4ccc(NS(=O)(=O)c5ccc(NC(CCN6CCC(C(=O)OCCCP(=O)(O)O)CC6)CSc6ccccc6)c(S(=O)(=O)C(F)(F)F)c5)cc4)CC3)c2)c(-c2ccc(Cl)cc2)n1C(C)C", 0.25]
]}

Query: So what does the record say about viability, T/C for C=CC(=O)N1CCN(c2nc(=O)n(-c3c(C)ccnc3C(C)C)c3nc(-c4c(O)cccc4F)c(F)cc23)C(C)C1 (centres undefined) + Cc1c(S(C)(=O)=O)c(-c2cc(F)cc(N3CCN(c4ccc(NS(=O)(=O)c5ccc(NC(CCN6CCC(C(=O)OCCCP(=O)(O)O)CC6)CSc6ccccc6)c(S(=O)(=O)C(F)(F)F)c5)cc4)CC3)c2)c(-c2ccc(Cl)cc2)n1C(C)C ?
Reply: 110
